Listing of entries alongside the reported pEC50.
test system: SARS-CoV; experiment: Inhibitory activity against SARS coronavirus 6109 replication in vero (CCL81) cells; format: functional, organism-based; settings: Severe acute respiratory syndrome-related coronavirus
pEC50: −log10 of the molar value. Square brackets hold non-standard residues; d marks the D form. Peptide text beside a SMILES is read from it. * marks the point of attachment. ξ: configuration not given here. ξE = NC(CCC(=O)O)C(=O)O; Cbz = O=C(OCc1ccccc1)*; CH2F = FC*

compound: CN(C)C(=O)CCC(NC(=O)CNC(=O)OCc1ccccc1)C(=O)CF (stereo not drawn) (Cbz-Gly-[ξE](NMe2)-CH2F)
observed.result: < 4.00
//
compound: C[C@H](NC(=O)OCc1ccccc1)C(=O)NC(CCC(=O)N(C)C)C(=O)CF (stereo partly drawn) (Cbz-Ala-[ξE](NMe2)-CH2F)
observed.result: < 4.00

What measured pEC50 goes with CC(C)[C@H](NC(=O)OCc1ccccc1)C(=O)NC(CC(=O)O)C(=O)CF (stereo partly drawn) ?
< 4.00
